Listed molecules paired with reported melting point
MEASURE NAME: melting point

- O=C(O)C(=O)O.O=C(OCCc1cccs1)N1CCc2nc[nH]c2C1 [Example 36]: 173 to 175 °C
- Cc1cccc(COC(=O)N2CCc3[nH]cnc3C2)c1.O=C(O)C(=O)O [Example 21]: 169 to 171 °C
- CCc1ccc(COC(=O)N2CCc3nc[nH]c3C2)cc1.O=C(O)C(=O)O [Example 34]: 171 to 173 °C
- O=C(O)C(=O)O.O=C(OCc1ccccc1Cl)N1CCc2nc[nH]c2C1 [Example 42]: 173 to 175 °C
- O=C(O)C(=O)O.O=C(OCCc1ccsc1)N1CCc2nc[nH]c2C1 [Example 37]: 193 to 194 °C
- Cc1cccc(CCOC(=O)N2CCc3[nH]cnc3C2)c1.O=C(O)C(=O)O [Example 24]: 155 to 157 °C
- O=C(O)C(=O)O.O=C(OCCC1CCCCC1)N1CCc2nc[nH]c2C1 [Example 40]: 174 to 176 °C
- O=C(O)C(=O)O.O=C(OCC1CCCCC1)N1CCc2nc[nH]c2C1 [Example 41]: 176 to 178 °C
- COc1cccc(COC(=O)N2CCc3[nH]cnc3C2)c1.O=C(O)C(=O)O [Example 19]: 163 to 165 °C
- Cc1ccc(COC(=O)N2CCc3[nH]cnc3C2)c(C)c1.O=C(O)C(=O)O [Example 28]: 176 to 178 °C
- CC(C)c1ccc(COC(=O)N2CCc3nc[nH]c3C2)cc1.O=C(O)C(=O)O [Example 31]: 166 to 168 °C
